Hi there, I'd appreciate the recorded MIC Coagulase Negative Staphylococcus (GC 4548) for every entry that follows.
# Test system: Staphylococcus sp.
# experiment: In vitro antibacterial evaluation: minimum inhibitory concentration (MIC), broth dilution method
# Assay type: cell-based
# condition_context: Coagulase Negative Staphylococcus (GC 4548); broth dilution, 18 hours at 35° C.
Numbered stars: 1 amine (or outer) side, 2 acyl side, 3 side chain; on linkers, the order of the positions; unused ones are H or OH. Square brackets hold non-standard residues; d marks the D form. Peptide text beside a SMILES is read from it. * marks the point of attachment. ξ: configuration not given here. X1 = N=C1NCC(C(O)C(N[*:1])C(=O)[*:2])N1C1OC(CO)C(O)C(O)C1O; ξEnduracididine(βξ-OH,4'ξ) = N=C1NCC(C(O)C(N)C(=O)O)N1; X2 = OCC1OC(OC2C(CO)OC(*)C(O)C2O)C(O)C(O)C1O; Cha = N[CH](CC1CCCCC1)C(=O)O

Check out these entries, answers already filled in.
N=C1NCC(C(O)C2NC(=O)C(Cc3ccc(OC4OC(CO)C(OC5OC(CO)C(O)C(O)C5O)C(O)C4O)cc3)NC(=O)C(CC3CCCCC3)NC(=O)CNC(=O)C(CO)NC(=O)C(C(O)C3CNC(=N)N3C3OC(CO)C(O)C(O)C3O)NC2=O)N1 (stereo not drawn) [Example 263] (cyclo(G[Cha]Y(X2)[ξEnduracididine(βξ-OH,4'ξ)][X1]S); configuration not given here)	32 µg/mL
CC(C)C(=O)OCC1OC(OC2C(CO)OC(Oc3ccc(CC4NC(=O)C(Cc5ccccc5)NC(=O)CNC(=O)C(CO)NC(=O)C(C(O)C5CNC(=N)N5C5OC(CO)C(O)C(O)C5O)NC(=O)C(C(O)C5CNC(=N)N5)NC4=O)cc3)C(O)C2O)C(O)C(O)C1O (stereo not shown) [Example 283a]	64 µg/mL
N=C1NCC(C(O)C2NC(=O)C(Cc3ccc(O)cc3)NC(=O)C(Cc3ccccc3)NC(=O)CNC(=O)C(CO)NC(=O)C(C(O)C3CNC(=N)N3C3OC(CO)C(O)C(O)C3O)NC2=O)N1 (stereo not drawn) [Example 279a] (cyclo(GFY[ξEnduracididine(βξ-OH,4'ξ)][X1]S); configuration not given here)	>64 µg/mL

Read the next record carefully.
# input Returns the measured MIC Coagulase Negative Staphylococcus (GC 4548) for the input molecule. Input: CC(C)CC(=O)OCC1OC(OC2C(CO)OC(Oc3ccc(CC4NC(=O)C(Cc5ccccc5)NC(=O)CNC(=O)C(CO)NC(=O)C(C(O)C5CNC(=N)N5C5OC(CO)C(O)C(O)C5O)NC(=O)C(C(O)C5CNC(=N)N5)NC4=O)cc3)C(O)C2O)C(O)C(O)C1O (stereo not shown) [Example 283c]
# output 8 µg/mL

Origin of the recorded values: patent US8247211B2
